tested on: Maize weevil [Sitophilus Zeamais (Motschulsky)]; assay: Maize weevil test (MW); assay type: in vivo; details: adult weevils, treated corn seeds, 48 hours, percent in solution
Measurement label: LC50 MW

In the examples that follow, each entry is paired with its recorded LC50 MW.
Reported LC50 MW for CC(C)C(=Nc1ccc(F)c(Cl)c1)OCc1cccc(Oc2ccccn2)c1 [Compound 549] : what is it?
> 0.01%

Note, next up: CC(C)C(=Nc1ccc2c(c1)OCO2)OCc1cccc(Oc2ccc(Cl)cc2)c1 [Compound 240]
> 0.01%

Please give the result for CC(C)C(=Nc1ccc2c(c1)OCO2)OCc1ccnc(Oc2ccccc2)c1 [Compound 540] too.
> 0.01%

Query CC(C)C(=Nc1ccc(Cl)c(Cl)c1)OCc1cccc(Oc2ccc(F)cc2)c1 [Compound 37] next
0.009%

Now this one: CC(C)C(=Nc1ccc(F)c(I)c1)OCc1ccc(F)c(Oc2ccccc2)c1 [Compound 334]
> 0.01%

And CC(C)C(=Nc1ccc(Cl)c(Cl)c1)OCc1cccc(Oc2ccccc2)c1 [Compound 9] ?
> 0.01%

Ok, now CC(C)C(=Nc1ccc(S(C)(=O)=O)cc1)OCc1ccc(F)c(Oc2ccc(F)cc2)c1 [Compound 414]
> 0.01%

Record: C=C(C)C(=Nc1ccc(C(F)(F)F)cc1)OCc1ccc(F)c(Oc2ccc(Cl)cc2)c1 [Compound 432]
> 0.01%

More entries:
Entry CC(C)C(=Nc1ccc(F)c(F)c1F)OCc1cccc(Oc2ccc(F)cc2)c1 [Compound 348] has what LC50 MW?
> 0.01%

Also, CC(C)C(=Nc1ccc(OC(F)(F)C(F)Cl)cc1)OCc1ccc(F)c(Oc2ccccc2)c1 (stereo not shown) [Compound 419] please.
> 0.01%

Same question, CC(C)C(=Nc1ccc(C(F)(F)F)cc1)OCc1cccc(Cc2ccccc2)c1 [Compound 543] this time
> 0.01%

Again, but for Cc1ccc(N=C(OCc2ccc(F)c(Oc3ccc(Cl)cc3)c2)C(C)C)cc1C [Compound 406]
> 0.01%

Record: CCOc1ccc(N=C(OCc2ccc(F)c(Oc3ccccc3)c2)C(C)C)cc1F [Compound 439]
> 0.01%

====

Test system: Maize weevil [Sitophilus Zeamais (Motschulsky)]
Experiment: Maize weevil test (MW)
Assay type: in vivo
Conditions: adult weevils, treated corn seeds, 48 hours, percent in solution
Description: The compounds in Tables 1 and 2 above were tested for insecticidal activity using the following testing procedures. LC50 values, based on the results of these tests and calculated according to dosage-mortality curves, are expressed in Table 3. Maize weevil [Sitophilus Zeamais (Motschulsky)] Test compounds were diluted in a 50:50 acetone:water solution. […] Mortality was recorded after 48 hours. […]
# LC50 MW values compiled below

Examples with answers:
Fill in the blank: the reported LC50 MW of CC(C)C(=Nc1ccc(C(F)(F)F)c(Br)c1)OCc1ccc(F)c(Oc2ccccc2)c1 is ____.
0.009%

Consider next the compound CC(C)C(=Nc1ccc(C(C)(C)C)cc1)OCc1cccc(Oc2ccccc2)c1 in the same way.
> 0.01%

Further cases:
Field request: LC50 MW | item: Cc1cccc(N=C(OCc2cccc(Oc3ccccc3)c2)C(C)C)c1
> 0.01%

====

system: Maize weevil [Sitophilus Zeamais (Motschulsky)]; assay: Maize weevil test (MW); assay type: in vivo; conditions: adult weevils, treated corn seeds, 48 hours, percent in solution
Measurement label: LC50 MW

Need LC50 MW of CC(C)C(=Nc1ccc(F)c(I)c1)OCc1cccc(Oc2ccc(F)cc2)c1 , thanks.
0.0075%

And the next one, Cc1cc(N=C(OCc2ccc(F)c(Oc3ccc(F)cc3)c2)C(C)C)ccc1F ?
> 0.01%

Try CC(C)C(=Nc1ccc(C(F)(F)F)c(Br)c1)OCc1ccc(F)c(Oc2ccc(Cl)cc2)c1 [Compound 433] next.
0.005%

Next: Cc1ccc(N=C(OCc2cccc(Oc3ccccc3)c2)C(C)C)cc1
> 0.01%

Record: CC(C)C(=Nc1ccc(F)c(F)c1F)OCc1ccc(F)c(Oc2ccc(F)cc2)c1
> 0.01%

***
Given CC(C)(F)C(=Nc1ccc(F)c(Cl)c1)OCc1cc(Oc2ccc(F)cc2)ccc1F , state its recorded LC50 MW.
> 0.01%

Moving on to the next compound: CC(C)C(=Nc1ccc(F)c(Cl)c1)OCc1cccc(Oc2cccc(Cl)c2)c1
> 0.01%

Also check CC(C)C(=Nc1ccc(-c2ccccc2)cc1)OCc1cccc(Oc2ccccc2)c1
> 0.01%
